- TGT: human plasma kallikrein (Homo sapiens (Human))
- MEASUREMENT DESCRIPTION: Determination of the plasma kallikrein activity (fluorogenic peptide substrate)
- Assay type: biochemical
- EXPERIMENTAL SETUP: plasma kallikrein from Kordia, substrate H-Pro-Phe-Arg-AMC, 22° C.
TEST READOUT: pIC50
Scale note: pIC50 = -log10(concentration in M).

// pIC50 value for CCC(C(=O)Nc1ccc(C(=O)OC[C@H](NC(=O)C2CCCCN2C)C(=O)O)cc1)n1cc(OC)c(-c2cc(Cl)ccc2C#N)cc1=O (single isomer, unassigned) : 7.28

Item: CCC(C(=O)Nc1ccc(C(=O)OC[C@H](NC(=O)CN2CCCC2)C(=O)O)cc1)n1cc(OC)c(-c2cc(Cl)ccc2C#N)cc1=O (single isomer, unassigned) | pIC50: 7.46

The measured pIC50 associated with CCC(C(=O)Nc1ccc(C(=O)OC2CCN(C)CC2)cc1)n1cc(OC)c(-c2cc(Cl)ccc2C#N)cc1=O (single isomer, unassigned) reads 6.92

Item: CCC(C(=O)Nc1ccc(C(=O)OCCN2CCN(C)CC2)cc1)n1cc(OC)c(-c2cc(Cl)ccc2C#N)cc1=O (single isomer, unassigned) | pIC50: 7.42

----------
- TGT: human plasma kallikrein (Homo sapiens (Human), UniProt P03952)
- Sequence (P03952 whole entry, looked up): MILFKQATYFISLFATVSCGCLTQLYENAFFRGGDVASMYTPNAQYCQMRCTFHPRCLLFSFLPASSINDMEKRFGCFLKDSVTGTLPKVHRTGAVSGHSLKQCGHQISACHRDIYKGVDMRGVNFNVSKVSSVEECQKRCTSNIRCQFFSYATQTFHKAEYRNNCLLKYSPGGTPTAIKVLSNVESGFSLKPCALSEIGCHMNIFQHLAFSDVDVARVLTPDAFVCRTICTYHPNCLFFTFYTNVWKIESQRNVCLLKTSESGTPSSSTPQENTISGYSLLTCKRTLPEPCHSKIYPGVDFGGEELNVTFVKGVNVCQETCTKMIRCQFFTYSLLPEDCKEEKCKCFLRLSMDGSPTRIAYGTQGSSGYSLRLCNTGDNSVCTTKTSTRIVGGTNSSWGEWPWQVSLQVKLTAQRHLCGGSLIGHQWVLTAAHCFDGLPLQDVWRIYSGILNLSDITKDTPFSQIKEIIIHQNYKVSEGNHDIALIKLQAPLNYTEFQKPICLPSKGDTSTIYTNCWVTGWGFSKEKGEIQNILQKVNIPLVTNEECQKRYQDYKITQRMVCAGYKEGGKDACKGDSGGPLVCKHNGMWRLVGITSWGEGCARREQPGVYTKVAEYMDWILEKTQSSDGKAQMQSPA
- Sequence (P03952 whole entry partner, looked up): as the sequence (P03952 whole entry, looked up) above
- MEASUREMENT DESCRIPTION: Determination of the plasma kallikrein activity (fluorogenic peptide substrate)
- Format: biochemical
- EXPERIMENTAL SETUP: plasma kallikrein from Kordia, substrate H-Pro-Phe-Arg-AMC, 22° C.
Recorded IC50 by entry

Reported IC50 for CCC(C(=O)Nc1ccc(C(=O)OC[C@H](NC(=O)[C@@H]2CCCN2)C(=O)O)cc1)n1cc(OC)c(-c2cc(Cl)ccc2C#N)cc1=O (some centres unmarked) was 44 nM

Continuing:
The measured IC50 associated with CCC(C(=O)Nc1ccc(C(=O)OC[C@](C)(N)C(=O)O)cc1)n1cc(OC)c(-c2cc(Cl)ccc2C#N)cc1=O (single isomer, unassigned) reads 60 nM

Noted for CCC(C(=O)Nc1ccc(C(=O)OCCC2CCNCC2)cc1)n1cc(OC)c(-c2cc(Cl)ccc2C#N)cc1=O (single isomer, unassigned) : its IC50 reads 44 nM

Notebook: CCC(C(=O)Nc1ccc(C(=O)O[C@H]2CCN[C@@H]2C(=O)O)cc1)n1cc(OC)c(-c2cc(Cl)ccc2C#N)cc1=O (single isomer, unassigned) , IC50 read as 91 nM

IC50 for CCC(C(=O)Nc1ccc(C(=O)OC[C@H](N)C(=O)O)cc1)n1cc(OC)c(-c2cc(Cl)ccc2C#N)cc1=O (single isomer, unassigned) is 92 nM

----------
- TGT: human factor XIa (Homo sapiens (Human))
- Sequence (P03951 whole entry, looked up): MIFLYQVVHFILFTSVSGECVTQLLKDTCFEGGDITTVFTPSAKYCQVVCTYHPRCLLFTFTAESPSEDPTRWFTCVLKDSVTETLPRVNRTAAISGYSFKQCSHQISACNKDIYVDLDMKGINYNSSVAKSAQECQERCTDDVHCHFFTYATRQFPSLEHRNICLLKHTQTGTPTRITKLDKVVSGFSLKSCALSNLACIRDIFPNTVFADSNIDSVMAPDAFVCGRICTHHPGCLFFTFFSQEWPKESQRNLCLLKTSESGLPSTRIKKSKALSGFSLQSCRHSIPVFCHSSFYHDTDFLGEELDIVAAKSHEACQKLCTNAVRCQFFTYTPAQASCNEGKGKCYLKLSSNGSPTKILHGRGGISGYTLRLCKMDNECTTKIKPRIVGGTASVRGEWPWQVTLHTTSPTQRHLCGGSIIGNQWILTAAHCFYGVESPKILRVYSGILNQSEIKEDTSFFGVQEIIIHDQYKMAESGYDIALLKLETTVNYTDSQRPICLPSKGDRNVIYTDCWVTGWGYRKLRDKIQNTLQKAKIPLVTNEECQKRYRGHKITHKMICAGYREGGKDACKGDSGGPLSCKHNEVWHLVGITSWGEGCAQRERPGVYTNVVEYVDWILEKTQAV
- Sequence (P03951 whole entry partner, looked up): as the sequence (P03951 whole entry, looked up) above
TEST READOUT: IC50 (nM)
Write it as a number; the unit nM goes unstated.

Example cases with answers are listed next.
Considering CCC(C(=O)Nc1ccc(C(=O)OC[C@@H](C(=O)O)N2CCCC2)cc1)n1cc(OC)c(-c2cc(Cl)ccc2C#N)cc1=O (single isomer, unassigned) [Example 12] , its IC50 with human factor XIa (Homo sapiens (Human)) was recorded as 26

Assay human factor XIa (Homo sapiens (Human)), sample CCC(C(=O)Nc1ccc(C(=O)OC[C@H](NC(=O)[C@H](C(C)C)N(C)C)C(=O)O)cc1)n1cc(OC)c(-c2cc(Cl)ccc2C#N)cc1=O (single isomer, unassigned) [Example 9] , IC50 read: 63

--- query ---
CCC(C(=O)Nc1ccc(C(=O)O[C@H]2CN[C@@H](C(=O)O)C2)cc1)n1cc(OC)c(-c2cc(Cl)ccc2C#N)cc1=O (single isomer, unassigned) [Example 11] on human factor XIa (Homo sapiens (Human)) gives IC50 = 260

----------
- TGT: human plasma kallikrein (Homo sapiens (Human), UniProt P03952)
- MEASUREMENT DESCRIPTION: Determination of the plasma kallikrein activity (fluorogenic peptide substrate)
- EXPERIMENTAL SETUP: plasma kallikrein from Kordia, substrate H-Pro-Phe-Arg-AMC, 22° C.
Measured IC50 accompanies every entry in the list below.
Numbers only here, please. The scale is nM.

IC50 in this record for CCC(C(=O)Nc1ccc(C(=O)O[C@H]2CN[C@@H](C(=O)O)C2)cc1)n1cc(OC)c(-c2cc(Cl)ccc2C#N)cc1=O (single isomer, unassigned) : 280

// CCC(C(=O)Nc1ccc(C(=O)OC(C)[C@H](N)C(=O)O)cc1)n1cc(OC)c(-c2cc(Cl)ccc2C#N)cc1=O (single isomer, unassigned) : IC50 value = 93

Entry CCC(C(=O)Nc1ccc(C(=O)OC[C@H](NC(=O)C2(N(C)C)CC2)C(=O)O)cc1)n1cc(OC)c(-c2cc(Cl)ccc2C#N)cc1=O (single isomer, unassigned) ; IC50 = 55

# IC50 (compound: CCC(C(=O)Nc1ccc(C(=O)OC[C@@H](C(=O)O)N2CCCC2)cc1)n1cc(OC)c(-c2cc(Cl)ccc2C#N)cc1=O (single isomer, unassigned) ) is 43

Kindly note the recorded IC50 for CCC(C(=O)Nc1ccc(C(=O)OCCN2CCCC2)cc1)n1cc(OC)c(-c2cc(Cl)ccc2C#N)cc1=O (single isomer, unassigned) , which is 40

***
Per the records, this compound ( COc1cn(C(C[C@@H]2CCCCO2)C(=O)Nc2ccc(C(=O)OC(C)[C@H](N)C(=O)O)cc2)c(=O)cc1-c1cc(Cl)ccc1C#N (single isomer, unassigned) ) has IC50 equal to 9.1

For this compound ( CCC(C(=O)Nc1ccc(C(=O)OC[C@H](NC(=O)[C@H](C(C)C)N(C)C)C(=O)O)cc1)n1cc(OC)c(-c2cc(Cl)ccc2C#N)cc1=O (single isomer, unassigned) ), measured IC50 is 51

Where do the numbers come from? From patent US10414731B2.
